Provenance of the data: patent US9981956B2

Test system: Candida albicans (ATCC 10231)
protocol_description: Candida albicans anti-fungal MIC potency determination
Assay type: cell-based
assay_setup: ATCC10231, 24 h, read-out: C. Albicans MIC90 at 24 h
Method: The wild type Candida albicans (ATCC 10231) was used and Fluconazole, amphotericin B, itraconazole and terbinafine were purchased from Sigma and used as positive controls. The highest assay concentration for all test compounds and fluconazole was 100 μM. […] C. albicans 3147 (ATCC 10231) glycerol frozen stock was streaked on Sabouraud dextrose agar (SDA). […] The cell density in inoculum was plate-counted to be 4.94×10^3 CFU/ml. […]
reported_endpoint: MIC90

Observe how each entry below is paired with its result.
CCC(C)n1ncn(-c2ccc(N3CCN(c4ccc(OC[C@@H]5CO[C@@](Cc6cccnc6)(c6ccc(Cl)cc6Cl)O5)cc4)CC3)cc2)c1=O (stereo partly drawn) ... > 100 µM
CCC(C)n1ncn(-c2ccc(N3CCN(c4ccc(OC[C@@H]5CO[C@@](Cc6cncnc6)(c6ccc(Cl)cc6Cl)O5)cc4)CC3)cc2)c1=O (stereo partly drawn) ... > 100 µM

Turning now to a further compound:
Prompt line: Quick check: MIC90 on Candida albicans (ATCC 10231), item CCC(C)n1ncn(-c2ccc(N3CCN(c4ccc(OC[C@@H]5CO[C@@](Cc6ccnnc6)(c6ccccc6)O5)cc4)CC3)cc2)c1=O (stereo partly drawn) ?
Response line: > 100 µM

----------
Tested on: Candida albicans (ATCC 10231)
protocol_description: Candida albicans anti-fungal MIC potency determination
Format: cell-based
assay_setup: ATCC10231, 48 h, read-out: C. Albicans MIC90 at 48 h
Description: The wild type Candida albicans (ATCC 10231) was used and Fluconazole, amphotericin B, itraconazole and terbinafine were purchased from Sigma and used as positive controls. The highest assay concentration for all test compounds and fluconazole was 100 μM. […] C. albicans 3147 (ATCC 10231) glycerol frozen stock was streaked on Sabouraud dextrose agar (SDA). […] The cell density in inoculum was plate-counted to be 4.94×10^3 CFU/ml. […]
The entries below are paired with their reported MIC90.

Observe how each entry below is paired with its result.
CCC(C)n1ncn(-c2ccc(N3CCN(c4ccc(OC[C@@H]5CO[C@@](Cc6ccnnc6)(c6ccccc6)O5)cc4)CC3)cc2)c1=O (stereo partly drawn) ... > 100 µM
CCC(C)n1ncn(-c2ccc(N3CCN(c4ccc(OC[C@@H]5CO[C@@](Cn6ccnc6)(c6ccc(Cl)cc6Cl)O5)cc4)CC3)cc2)c1=O (stereo partly drawn) ... 0.195 µM
CCC(C)n1ncn(-c2ccc(N3CCN(c4ccc(OC[C@@H]5CO[C@@](Cn6nccn6)(c6ccccc6C)O5)cc4)CC3)cc2)c1=O (stereo partly drawn) ... > 100 µM

Prompt line: Item under review: CCC(C)n1ncn(-c2ccc(N3CCN(c4ccc(OC[C@@H]5CO[C@@](Cc6cncnc6)(c6ccc(Cl)cc6Cl)O5)cc4)CC3)cc2)c1=O (stereo partly drawn) . Reported MIC90?
Response line: > 100 µM

Prompt line: Another compound: CCC(C)n1ncn(-c2ccc(N3CCN(c4ccc(OC[C@@H]5CO[C@@](Cc6cccnc6)(c6ccc(Cl)cc6Cl)O5)cc4)CC3)cc2)c1=O (stereo partly drawn)
Response line: > 100 µM

Prompt line: Another compound: CCC(C)n1ncn(-c2ccc(N3CCN(c4ccc(OC[C@@H]5CO[C@@](Cn6nccn6)(c6ccc(Cl)cc6)O5)cc4)CC3)cc2)c1=O (stereo partly drawn)
Response line: > 100 µM

----------
The entries below are paired with their reported MIC90.
System: Candida albicans (ATCC 10231)
protocol_description: Candida albicans anti-fungal MIC potency determination
Assay type: cell-based
assay_setup: ATCC10231, 48 h, read-out: C. Albicans MIC90 at 48 h

Prompt line: Item under review: CCC(C)n1ncn(-c2ccc(N3CCN(c4ccc(OC[C@@H]5CO[C@@](Cn6nccn6)(c6ccccc6Cl)O5)cc4)CC3)cc2)c1=O (stereo partly drawn) . Reported MIC90?
Response line: > 100 µM

Prompt line: Another molecule: CCC(C)n1ncn(-c2ccc(N3CCN(c4ccc(OC[C@@H]5CO[C@@](CCCn6cncn6)(c6ccc(Cl)cc6Cl)O5)cc4)CC3)cc2)c1=O (stereo partly drawn)
Response line: > 100 µM

Prompt line: Another molecule: CCC(C)n1ncn(-c2ccc(N3CCN(c4ccc(OC[C@@H]5CO[C@@](Cn6nccn6)(c6ccc(Cl)cc6Cl)O5)cc4F)CC3)cc2)c1=O (stereo partly drawn)
Response line: > 100 µM

----------
test_system: Cyp3A4 (Homo sapiens, UniProt P08684)
Sequence (P08684 whole entry): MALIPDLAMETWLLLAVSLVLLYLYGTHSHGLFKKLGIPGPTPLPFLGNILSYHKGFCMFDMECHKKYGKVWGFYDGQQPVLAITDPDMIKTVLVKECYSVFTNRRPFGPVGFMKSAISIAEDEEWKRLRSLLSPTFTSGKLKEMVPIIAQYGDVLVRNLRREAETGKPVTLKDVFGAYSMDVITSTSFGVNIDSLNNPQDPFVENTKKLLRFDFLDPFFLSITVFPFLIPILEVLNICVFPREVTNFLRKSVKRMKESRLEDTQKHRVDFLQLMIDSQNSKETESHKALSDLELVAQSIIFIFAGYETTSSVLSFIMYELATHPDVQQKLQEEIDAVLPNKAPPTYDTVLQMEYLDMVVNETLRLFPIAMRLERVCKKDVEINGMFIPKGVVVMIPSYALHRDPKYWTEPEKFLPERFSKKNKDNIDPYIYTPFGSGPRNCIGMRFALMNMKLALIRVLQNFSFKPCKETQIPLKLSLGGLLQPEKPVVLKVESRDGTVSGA
protocol_description: Cyp reversible inhibition assay (human liver microsomes)
assay_setup: Cyp 3A4 midazolam LCMS IC50, human liver microsomes; substrate midazolam
pIC50: −log10 of the molar value.
The entries below are paired with their reported pIC50.

CCC(C)n1ncn(-c2ccc(N3CCN(c4ccc(OC[C@@H]5CO[C@@](Cn6nccn6)(c6ccccc6C#N)O5)cc4)CC3)cc2)c1=O (some centres unmarked) ... < 4.30

Prompt line: Item under review: CCC(C)n1ncn(-c2ccc(N3CCN(c4ccc(OC[C@@H]5CO[C@@](Cc6ccnnc6)(c6ccc(Cl)cc6Cl)O5)cc4)CC3)cc2)c1=O (some centres unmarked) . Reported pIC50?
Response line: < 4.30

Prompt line: Another compound: CCC(C)n1ncn(-c2ccc(N3CCN(c4ccc(OC[C@@H]5CO[C@@](Cn6nccn6)(c6ccc(Cl)cc6Cl)O5)c(F)c4)CC3)cc2)c1=O (some centres unmarked)
Response line: < 4.30

Prompt line: Another compound: CCC(C)n1ncn(-c2ccc(N3CCN(c4ccc(OC[C@@H]5CO[C@@](Cn6nccn6)(c6ccccc6Cl)O5)cc4)CC3)cc2)c1=O (some centres unmarked)
Response line: < 4.30

Prompt line: Another compound: CCC(C)n1ncn(-c2ccc(N3CCN(c4ccc(OC[C@@H]5CO[C@@](Cn6nccn6)(c6ccc(Cl)cc6Cl)O5)c(C#N)c4)CC3)cc2)c1=O (some centres unmarked)
Response line: < 4.30

Prompt line: Another compound: CCC(C)n1ncn(-c2ccc(N3CCN(c4ccc(OC[C@@H]5CO[C@@](Cc6ccncc6)(c6ccc(Cl)cc6Cl)O5)cc4)CC3)cc2)c1=O (some centres unmarked)
Response line: 6.49

Prompt line: Another compound: CCC(C)n1ncn(-c2ccc(N3CCN(c4ccc(OC[C@@H]5CO[C@@](Cn6nccn6)(c6ccccc6)O5)cc4)CC3)cc2)c1=O (some centres unmarked)
Response line: < 4.30

Prompt line: Another compound: CCC(C)n1ncn(-c2ccc(N3CCN(c4ccc(OC[C@@H]5CO[C@@](Cc6cncnc6)(c6ccc(Cl)cc6Cl)O5)cc4)CC3)cc2)c1=O (some centres unmarked)
Response line: 6.84

Prompt line: Another compound: CCC(C)n1ncn(-c2ccc(N3CCN(c4ccc(OC[C@@H]5CO[C@@](Cn6ccnc6)(c6ccc(Cl)cc6Cl)O5)cc4)CC3)cc2)c1=O (some centres unmarked)
Response line: 8.51

----------
The entries below are paired with their reported pIC50.
test_system: Cyp3A4 (Homo sapiens, UniProt P08684)
protocol_description: Cyp time-dependent inhibition (TDI) assay (human liver microsomes)
Format: in vitro ADME
Design: The TDI assay was generally performed in liver microsomes; from tissue; host or cells: human liver microsomes
assay_setup: 20 min pre-incubation without NADPH; human liver microsomes; read-out: 3A4-Midazolam IC50 (−) NADPH
pIC50: −log10 of the molar value.

Observe how each entry below is paired with its result.
CCC(C)n1ncn(-c2ccc(N3CCN(c4ccc(OC[C@@H]5CO[C@@](Cn6nccn6)(c6ccc(Cl)cc6Cl)O5)cc4)CC3)cc2)c1=O (stereo partly drawn) [Compound 15] ... < 4.30
CCC(C)n1ncn(-c2ccc(N3CCN(c4ccc(OC[C@@H]5CO[C@@](Cn6nccn6)(c6ccccc6)O5)cc4)CC3)cc2)c1=O (stereo partly drawn) [Compound 42] ... < 4.30

Turning now to a further molecule:
Prompt line: Quick check: pIC50 on Cyp3A4 (Homo sapiens, UniProt P08684), item CCC(C)n1ncn(-c2ccc(N3CCN(c4ccc(OC[C@@H]5CO[C@@](Cc6ccnnc6)(c6ccc(Cl)cc6Cl)O5)cc4)CC3)cc2)c1=O (stereo partly drawn) [Compound 22] ?
Response line: < 4.30

----------
test_system: Cyp3A4 (Homo sapiens, UniProt P08684)
protocol_description: Cyp reversible inhibition assay (human liver microsomes)
assay_setup: Cyp 3A4 testosterone LCMS IC50, human liver microsomes; substrate testosterone
pIC50: −log10 of the molar value.
The entries below are paired with their reported pIC50.

Observe how each entry below is paired with its result.
CCC(C)n1ncn(-c2ccc(N3CCN(c4ccc(OC[C@@H]5CO[C@@](Cn6cccn6)(c6ccc(Cl)cc6Cl)O5)cc4)CC3)cc2)c1=O (some centres unmarked) ... < 4.30
CCC(C)n1ncn(-c2ccc(N3CCN(c4ccc(OC[C@@H]5CO[C@@](CCn6cncn6)(c6ccc(Cl)cc6Cl)O5)cc4)CC3)cc2)c1=O (some centres unmarked) ... 6.26

Prompt line: Item under review: CCC(C)n1ncn(-c2ccc(N3CCN(c4ccc(OC[C@@H]5CO[C@@](Cc6cccnc6)(c6ccc(Cl)cc6Cl)O5)cc4)CC3)cc2)c1=O (some centres unmarked) . Reported pIC50?
Response line: 6.55

Prompt line: Another molecule: CCC(C)n1ncn(-c2ccc(N3CCN(c4ccc(OC[C@@H]5CO[C@@](Cn6nccn6)(c6ccccc6)O5)cc4)CC3)cc2)c1=O (some centres unmarked)
Response line: < 4.30

Prompt line: Another molecule: CCC(C)n1ncn(-c2ccc(N3CCN(c4ccc(OC[C@@H]5CO[C@@](Cn6ccnc6)(c6ccc(Cl)cc6Cl)O5)cc4)CC3)cc2)c1=O (some centres unmarked)
Response line: 8.16
